The reported numbers originate from patent US20260345654A1.

- Tested on: A431 cells
- Protocol notes: In vitro anti-proliferation (CellTiter-Glo, 72 hr), A431
- Type: cell-based
- Applied conditions: +Cu; complexed in situ with copper immediately prior to testing; not based on apo MW; read-out: IC50
Assay endpoint: IC50 (µM)
State the answer as a number, implicitly in µM.

Exam item: Fill in reported IC50 for this entry: O=C(O)[C@H]1O[C@@H](Oc2ccc3cccc(O)c3n2)[C@H](O)[C@@H](O)[C@@H]1O
Marked response: 85

----------
- System: RL cells
- Protocol notes: In vitro anti-proliferation (CellTiter-Glo, 72 hr), RL
- Assay type: cell-based
- Applied conditions: Homo sapiens, RL, 72 h, +Cu (10 μM); 72 hr; G2-8HQ values based on MW of apo form (337); read-out: IC50
Assay endpoint: IC50 (nM)
Lab book: enter the figure in nM, no units written.

Oc1cccc2cccnc12 [8HQ, 8-hydroxyquinoline, reference compound]	60

Exam item: Answer with IC50 of O=C(O)[C@H]1O[C@@H](Oc2ccc3cccc(O)c3n2)[C@H](O)[C@@H](O)[C@@H]1O [G2-8HQ] measured for RL cells.
Marked response: 468

----------
- System: cancer cell lines
- Protocol notes: Anti-proliferative activity against cancer cell lines (overall statements)
- Assay type: cell-based
- Applied conditions: without copper; six of the nine carcinoma cell lines
Assay endpoint: IC50

Exam item: Read off the recorded IC50 for O=C(O)[C@H]1O[C@@H](Oc2ccc3cccc(O)c3n2)[C@H](O)[C@@H](O)[C@@H]1O
Marked response: > 500 µM
